Experiment: yeast display, Sf9 membrane polyspecificity reagent, FACS + sequencing; frameworks hold sequencing errors
property_name: polyreactivity (PSR sort gate)

Solved entries:
# input_sequence, assay_result
records = [
    ("QVQLVESGGGLVQAGGSLRLSCSASGFIFRFYGMGWYRQAPGKERELVASIRRSGGSTYYADSVKGRFTISRDNAKNSVYLQMNSLKPEDTAVYDCAARWYVYVHFERYYWGQGTQVTVSS", "high polyreactivity"),
    ("QVPLVESGGGLVQAGGSLRLSCAASGFTFFSHAMGWYSQAPGKDRELVAAITTNGGSTYYADSVKGRFTISRDNAKNTVYVQITSLKPEDTAVYYCAADYSLPWSWLYEYWGQGTQVTVSS", "low polyreactivity"),
    ("QVQLVESGGGLVQAGGSLRLSCAASGRIFRYNAMGWYRQAPGKERELVATIRWGGGGTYYADSVKGRFTISRDNAKNSVYLLMNSLKPEDTAVYYCNAKRYSPGYNYWGQGTQVTVSS", "high polyreactivity"),
    ("QVQLQESGGRLVQAGGSMRLSCAASGTISDSGLMGWYRQAPGKERELVAGISSGGITNYADSVKGRFTISRDNAKNTVSLQMNSLKPEDTAVYWGQGTQVTVSS", "low polyreactivity"),
]

For record `QVQLVESGRGLVQAGGRQRLSSAASGTTFGRYAMGWTRQAPGKQRELVAAISESDGSTYYADSVKGRFTISRDNAKNTVYLQMNSLTPEDTSVYYCAAEWTHYWWYQYDYWGQGTQVTVSS` the listed polyreactivity (PSR sort gate) is high polyreactivity

###

Test: yeast display, Sf9 membrane polyspecificity reagent, FACS + sequencing; frameworks hold sequencing errors
property_name: polyreactivity (PSR sort gate)

Examples with answers:
# input_sequence, polyreactivity (PSR sort gate)
measured = [
    ("QVQLVESGGGLVQAGGSLRLSCAASGRTFYTNAMGWYRQAPGKERELVAVISRGGTTYYADSVKGRFTISRDNEKNTVYIQMNSLKPEDTAFYYCAIQSPSGDSSSQMGSWGQGTQVTVSS", "low polyreactivity"),
    ("QVQLVESGGGLVQAGGSLRLSCAASGRTFYPNAMGWYRQAPGKERELVARITTRGGSTYYADSVKGRFTISRDNAKNTVYLQMNSLKPEATAVYYCAVDYNSDWAYDYWGQGTQVTVSS", "high polyreactivity"),
    ("QVQLVESGGGLVQAGGSLRLSCAASGRTFTINTLGWYRQAAGKERELVAAIVGDGTTNYADSVKGLFTISGDNAKNTVDLQMNSLKPEDTAVYYCAADAGYLYDWPYNSYYWGQGTQLTVSS", "low polyreactivity"),
    ("QVQLVESGGGLVQAGGSLRLSCAASGIFRKYAMGWYRQAPGTERELVAAITWGGGRTYYADSVKGRFTISRDNAKNTVYLQMNSLKPEDTAVYYCAAEYSLVPSYKVYYWGQGTQVTVSS", "high polyreactivity"),
    ("QVQLVESGGGLVQAGGSLRLSCAASGSTFGRYAMGWYRQAPGKERELVAAISRRGASTYYADSVKGRFTISRDNAKNTVYLQMNSLKPEDTAVYYCATGYPIDLGREFDYWGQGIQVTVSS", "high polyreactivity"),
]

Hi, could you look up polyreactivity (PSR sort gate) for each item in my list?
1. QVQLVDSGGGLVQAGGSLRLSCAASGSTFRRNAMGWYRHAPGKERELVAAINRRGGDTYYADSVKGRFTISCDNAKNTVYLQMNSLKPEDTAVYYCAAEWQSVAFDWGGYGDDYWGQGTQVTVSS
2. QVQLVESGGGLGQAGGSLRLSCAASGSTFIDNAMGWYRQAPGKERELVAAINSSGGNTYYADSVKWRFTISRDNAKNTVYLQMNSLKPEDTAVYYCNAEFYVLYFYDYEYWGQGTQVTLSS
3. QVQLVESGGGLVQAGGSLRLSCAASGRNFKQYAMGWYRQAPGKERELVAVITRGGGSTYYADSVKGRFTISRDNAKNTVYLQMNSLKPEDTAVYYCAARGTQAPPGRRTGGYNSWGQGTQVTVSS
4. QVQLVESGGGLVQAGGSLRLSCAASGRIFTGNVMGWYRQAPGKERELVAAITYRGGSTYYADSVKGRFTISRDNAKNTVYLQMHSLKPEDTAVYYCNTRWDPYGYDYWGQGTQVTVSS
5. QVQLVESGGGLVQAGGSLRLSCAASGYTFWHYAMGWYRQAPGKEREFVATISSGGSTYYADSVKGRFTISRDNAMNTVYLQMNSLKPEDTAVYYCAADVDYIGPIYDYWGQGTQVTVSS
6. QVKLVESGGGLVQAGGSLRLSCAASGLTFDHNVMGWYRPAPGKERELVAAISRSGSSTYYADSVKGRFTISRDNAKNTVYLQMNSLKPEDTAVYYCAAARSRYSYATGFDYWGQGTQVTVSS

["low polyreactivity", "low polyreactivity", "high polyreactivity", "low polyreactivity", "low polyreactivity", "high polyreactivity"]

###

Experiment: yeast display, Sf9 membrane polyspecificity reagent, FACS + sequencing; frameworks hold sequencing errors
property_name: polyreactivity (PSR sort gate)

Consider the reported polyreactivity (PSR sort gate) for these sequences:
# input_sequence, property_name, assay_result
measured = [
    ("QVQLVESGGGLVQAGGRLRLSCAASGFIFDSNTMGWYRQAPGKERELVAGITRRGGSTYYADSVKGRFTISRDNAKNSVYLQMNSLNPEDTAVYYCATAGTYTGGEGYWGQGTQVTVSS", "polyreactivity (PSR sort gate)", "high polyreactivity"),
    ("QVQLVESGVGLVQAGGSLRLSCAASGRIFYPYAMGWYRQAPGKERELDAVINGSGGSTYYADSVKGRFTISRDYAKNTVYLQMNSLKPEDTAVYYCARVWSRRYGGWYRNYYWGQGTQVTVSS", "polyreactivity (PSR sort gate)", "high polyreactivity"),
    ("QLQLVESGGGLVQAGGSLRLSCAASGFTFSGYAMGWYRQAPGKERELVAAITKRGGSTYYADSVKGRFTISRDNAKNTVYLQMNSLKPEDTAVYYCAARGYISRYDARANAVQGNYWGQGTQVTVSS", "polyreactivity (PSR sort gate)", "high polyreactivity"),
    ("QVQLVESGGGLVQAGGSLRLSCAASGRTFPGNAMGWYRQAPGKERELVAAINSRGSTYYADSVKGRFTISRDNAKHTVYLKMNSLKPEDTAVYYSAAYFGHYWRYYYWGQGTQVNVSS", "polyreactivity (PSR sort gate)", "high polyreactivity"),
    ("QVQLVESGGGLVQAGGSLRLSCAASGIIFYKYAMGWYRQAPGKERELVAAITSGGGRTYYADSVKGRFTISRDNAKNTVYLQMNSLKPEDTAVYYCAATRPATYAAYDYWGQGTQVTVSS", "polyreactivity (PSR sort gate)", "high polyreactivity"),
    ("QVQLVESGGGLVQAGGSLRLSCAASGSTFYQNAMGWYRQAPGKERELVAAISGGSDTYYADSVKGRFTISRDNAKNTVYLQMNSLKPEDTAFYYCAADVASSEGKSWTLKDEYDYWGQGTQVTVSS", "polyreactivity (PSR sort gate)", "low polyreactivity"),
    ("QVQLVESGGGLVQAGGSLRLSCAASGITFYQYAMGWSRQAPGKERELVAAIRWSGSSTYYADSVKGRFTISRDNAKNTVYLQMNSLKPEDTAVYYCAAAPGGWPGEYWGQGTQVTVSS", "polyreactivity (PSR sort gate)", "low polyreactivity"),
    ("QGQLVESGGGLVQAGGSLRLSCAASGSTFTRYGMGWYRQAPGKERELVAAITTSGSSTYYADSVKGRFTISRDNAKNTVYLQMNSLKPEDTAVYYCAADWSSWGFDYWGQGTQVTVSS", "polyreactivity (PSR sort gate)", "low polyreactivity"),
]

Kindly give each listed record's polyreactivity (PSR sort gate).
1. QVQLVESGGGLVQAGGSLRLSCAASGSIFQSYAMGWYRQAPGKERELVAGISSDGSTYYADSVKGRFTISRDNAKNTVYLQMNSLKPEDTAVYYCAAERWGNPTDYQFWRPYDYWGQGTQVTVSS
2. QVQLVESGGGLVQARGSLRLSCAASGSTSTYYAMGWYRQAPGKERELVAAITSSVGSTHYADSVKGRFTISRDNAKNTVYLQMNSLKPEDTAVYYCAATFGYGRYGYWGQGTQVTVSS
3. QVQLVEAGAGLVQAGGSLRLSCAASGGIFGQYTRGWSRHAPGKERELVAGISTSGGSTYYADSVKGRFTISRDYAKNTVYLQMNSLKPGDTAVYYCAAGSYRKRVTNYSYRTPYGYWGHGTQVTVSS

["low polyreactivity", "low polyreactivity", "high polyreactivity"]

###

Assay: yeast display, Sf9 membrane polyspecificity reagent, FACS + sequencing; frameworks hold sequencing errors
property_name: polyreactivity (PSR sort gate)

# input_sequence, assay_result
measured = [
    ("QVQLVESGGGLVQAGGCLRLSCAASGFTFPFYAMGWYRQAPGKERELVAAITSRGGSTYYADSVKGRFTISRDNAKNTVYLQMNSLKPEHTAVYYCAARYTPRRYYYWGQGTQVTVSS", "high polyreactivity"),
    ("QVQLVESGGGLVQAGGSLRISCAASGRIYNRNAMGWYRQAPGKERELVAAIRSDGTTNYADSVKGRFTISRDNAKNTVYLQMISLKPEDTAVYYCNAEEGYHWWIIPEEDDYWGQGTQVTVSS", "low polyreactivity"),
    ("QVQLVESGGGLVQAGGSLRLSCAASGFTFGFYAMGWSRQATGKERELVARISYSGGSTYYADSVKGRFTISRDNAKNTVYLQMNSLKPEDTAVYYCNRGYRRLQEDYWGQGTQVTVSS", "high polyreactivity"),
    ("QVQLVESGGGLVQAGGSLRLTCAASGRTFQYNAMVWYRQAPGKERELVAAISSSGGSTYYADSVKGRFTISRDNAKNTVYLQMNSLKPEDTAVYYCNAYSQSWNFYGDGDYWGQGTQVTVSS", "low polyreactivity"),
]

Dear colleague, could you please provide polyreactivity (PSR sort gate) for the sequences listed below?
1. QVQLVESGGGLVQAGGSLRLSCAASGRTFNYYAMGWYRQAPGKERELVAAISTSGGSTYYADSVKGRFTISRDNAKNTVYLQMNSLKPEDTAVYYCNAVYRVWYAEWSTVGSPHDYWGQGTQVTVSS
2. QVQLVESGGGLVQAGGSLRLSCAASGFTLWGYAMGWYRQAPGKERELVATISWSGGGTNYADSVKGRFTISRDNAKNTVYLQMNSLKPEDTAVYYCAAGQGSRNQYYYWGQGTQVTVSS

1. low polyreactivity
2. high polyreactivity

Provide the reported polyreactivity (PSR sort gate) of each entry below, same order.
1. QVQLVESVGGLVQAGGSLRLSCAASGRTFYTNAMGWYRQAPGKERELVAAITRGTSTSYADSVKGRFTISRDNAKNTVYLQMNSLKPEDTAVYYCAARGTQYSPSKSWFYYWGQGTQVTVSS
2. QVQLVESGGGLVQAGGSLRLSCAASGSTFSYYAMVWYRQAPGKERELVADISSGGSTNYADSVKGRFTISRDNAKNTVYLQMNSLKPEDTAVYYCNRRYSYYDGFDYWGQGTQVTVSS
3. QVQLVESGGGLVQAGGSLRLSCAASGGIFVRYAMGWYRPAPGKERELVAAISSSGDRTYYADSVKGRFTISRDTAKNTVYLQMNSLKPEDTAVYYCNADRGHDKVDYWGQGTQVTVSS
4. QVQLVESGGGLVQAGGSLRLSCAASGRTFYRNAMGWYRQAPGKERELVAAISGSGVRTYYADSVKGRFTISRDNAKNTVYLQMNSLKPEDTAVYYCARSVTWFRGRFSPDYGSWGQGTQVTVSS

["high polyreactivity", "low polyreactivity", "low polyreactivity", "high polyreactivity"]

The recorded polyreactivity (PSR sort gate) for `QVQLVESGGGLVQAGGSLRLSCAASGLTFNYYAMGWYRQPPGKESELVAAITSSGGRTYYADSVKGRFTISRDNAKNTGYLQMNSLKPEDTAVYYCNTVSYRLGAVWFSYDYWGQGTQVTVSS` is high polyreactivity
